assay: Dissociation constant (pKa1)
property_name: pKa

Note to self: pKa recorded for `Cc1c(F)ccc(-n2cc(C(=O)O)c(=O)c3cc(F)c(N4CCNCC4)cc32)c1F` was 5.87

// recorded pKa for Cc1cc(F)ccc1-n1cc(C(=O)O)c(=O)c2cc(F)c(N3CC(C)NC(C)C3)cc21 (stereo unspecified) : 6.16

# compound `Cc1cc(F)ccc1-n1cc(C(=O)O)c(=O)c2cc(F)c(N3CCNCC3)cc21` ; its pKa = 6.11

Notebook: Cc1ccccc1-n1cc(C(=O)O)c(=O)c2cc(F)c(N3CC(C)NC(C)C3)cc21 (stereo unspecified) , pKa read as 6.01

Field pKa (entry `Cc1ccc(-n2cc(C(=O)O)c(=O)c3cc(F)c(N4CCNCC4)cc32)c(F)c1` ) reads 5.96

For reference, reported pKa for Cc1c(F)ccc(-n2cc(C(=O)O)c(=O)c3cc(F)c(N4CC(C)NC(C)C4)cc32)c1F (stereo unspecified) stands at 5.94

* * *

test system: Streptococcus pyogenes; test: Minimum inhibitory concentration against gram-positive Streptococcus pyogenes C203 (SP1-1); assay type: functional
property_name: MIC

MIC recorded for this compound, Cc1ccc(-n2cc(C(=O)O)c(=O)c3cc(F)c(N4CC(C)NC(C)C4)cc32)cc1 (centres undefined) , is > 3.1 µg/mL

The measured MIC associated with CC1CN(c2cc3c(cc2F)c(=O)c(C(=O)O)cn3-c2ccc(F)cc2)CC(C)N1 (centres undefined) reads 0.8 µg/mL

Field MIC (entry Cc1cc(F)ccc1-n1cc(C(=O)O)c(=O)c2cc(F)c(N3CC(C)NC(C)C3)cc21 (centres undefined) ) reads > 3.1 µg/mL

Noted for `Cc1ccccc1-n1cc(C(=O)O)c(=O)c2cc(F)c(N3CCNCC3)cc21` : its MIC reads > 3.1 µg/mL

Value of MIC reported for the compound Cc1ccccc1-n1cc(C(=O)O)c(=O)c2cc(F)c(N3CC(C)NC(C)C3)cc21 (centres undefined) is > 3.1 µg/mL

New cases:
Sample Cc1ccc(-n2cc(C(=O)O)c(=O)c3cc(F)c(N4CC(C)NC(C)C4)cc32)c(C)c1 (centres undefined) ; MIC observed: > 3.1 µg/mL

For reference, reported MIC for `Cc1cc(F)ccc1-n1cc(C(=O)O)c(=O)c2cc(F)c(N3CCNCC3)cc21` stands at 1.6 µg/mL

Kindly note the recorded MIC for Cc1ccc(-n2cc(C(=O)O)c(=O)c3cc(F)c(N4CC(C)NC(C)C4)cc32)c(F)c1 (centres undefined) , which is > 3.1 µg/mL

Lookup result for `O=C(O)c1cn(-c2ccc(Cl)cc2Cl)c2cc(N3CCNCC3)c(F)cc2c1=O` ; measured MIC: > 3.1 µg/mL

* * *

test system: Pseudomonas aeruginosa; experiment: Minimum inhibitory concentration against gram-negative Pseudomonas aeruginosa U1-18 (PA-7); assay type: functional
property_name: MIC (µg/mL)

The cases that follow already have their MIC on record.
Reported MIC of CC1CN(c2cc3c(cc2F)c(=O)c(C(=O)O)cn3-c2ccc(F)cc2)CC(C)N1 (centres undefined) : 0.8

Note to self: MIC recorded for `O=C(O)c1cn(-c2ccc(F)cc2F)c2cc(N3CCNCC3)c(F)cc2c1=O` was 0.2

The reported value for `Cc1ccc(-n2cc(C(=O)O)c(=O)c3cc(F)c(N4CCNCC4)cc32)c(C)c1` in terms of MIC is 3.1

Reported MIC of `O=C(O)c1cn(-c2ccccc2)c2cc(N3CCNCC3)c(F)cc2c1=O` : 0.8

1: Cc1c(F)ccc(-n2cc(C(=O)O)c(=O)c3cc(F)c(N4CCNCC4)cc32)c1F
2: O=C(O)c1cn(-c2ccc(F)cc2)c2cc(N3CCNCC3)c(F)cc2c1=O
3: Cc1ccc(-n2cc(C(=O)O)c(=O)c3cc(F)c(N4CCNCC4)cc32)cc1
4: O=C(O)c1cn(-c2ccccc2F)c2cc(N3CCNCC3)c(F)cc2c1=O
Query block: Parameters: sort_field (MIC), sort_dir (desc). Please list each label once, in the requested order.
Result block: 1, 3, 4, 2

* * *

test system: Staphylococcus aureus; experiment: Minimum inhibitory concentration against gram-positive Staphylococcus aureus H-228 (SA-13); assay type: functional
property_name: MIC (µg/mL)

Take a look at these entries with their results.
Summary for this compound, CC1CN(c2cc3c(cc2F)c(=O)c(C(=O)O)cn3-c2ccccc2F)CC(C)N1 (stereo not drawn) : MIC is 1.6

Value of measured MIC for the entry Cc1cc(F)ccc1-n1cc(C(=O)O)c(=O)c2cc(F)c(N3CC(C)NC(C)C3)cc21 (stereo not drawn) : 1.6

Record summary for `Cc1ccc(-n2cc(C(=O)O)c(=O)c3cc(F)c(N4CCNCC4)cc32)c(F)c1` : reported MIC = 1.6

Looking up `Cc1ccccc1-n1cc(C(=O)O)c(=O)c2cc(F)c(N3CCNCC3)cc21` , I found its MIC recorded as 3.1

MIC in this record for `Cc1c(F)ccc(-n2cc(C(=O)O)c(=O)c3cc(F)c(N4CCNCC4)cc32)c1F` : 1.6

What the record says about CC1CN(c2cc3c(cc2F)c(=O)c(C(=O)O)cn3-c2ccc(F)cc2F)CC(C)N1 (stereo not drawn) : MIC is 0.4

I: Cc1c(F)ccc(-n2cc(C(=O)O)c(=O)c3cc(F)c(N4CC(C)NC(C)C4)cc32)c1F (stereo not drawn)
II: O=C(O)c1cn(-c2ccc(F)cc2F)c2cc(N3CCNCC3)c(F)cc2c1=O
Query block: For the pair I and II , which entry has the numerically smaller recorded MIC? Which one? Tell me its label.
Result block: II

a: CC1CN(c2cc3c(cc2F)c(=O)c(C(=O)O)cn3-c2ccccc2)CC(C)N1 (stereo not drawn)
b: O=C(O)c1cn(-c2ccc(F)cc2)c2cc(N3CCNCC3)c(F)cc2c1=O [SARAFLOXACIN]
c: Cc1ccc(-n2cc(C(=O)O)c(=O)c3cc(F)c(N4CC(C)NC(C)C4)cc32)cc1 (stereo not drawn)
d: Cc1cc(F)ccc1-n1cc(C(=O)O)c(=O)c2cc(F)c(N3CCNCC3)cc21
Query block: Returns the items ordered by MIC, from maximum to minimum. A ranking is expressed here by listing the labels in the requested order.
Result block: c, a, d, b

1: O=C(O)c1cn(-c2ccccc2F)c2cc(N3CCNCC3)c(F)cc2c1=O
2: Cc1ccc(-n2cc(C(=O)O)c(=O)c3cc(F)c(N4CC(C)NC(C)C4)cc32)c(F)c1 (stereo not drawn)
Query block: Form field 'greater MIC' accepts 1 or 2 ; which applies? Selection: enter the item's label.
Result block: 2
(2: 3.1 µg/mL, 1: 0.8 µg/mL)

* * *

experiment: Dissociation constant (pKa2)
property_name: pKa

The reported pKa of the compound Cc1cc(F)ccc1-n1cc(C(=O)O)c(=O)c2cc(F)c(N3CC(C)NC(C)C3)cc21 (stereo not given) was 8.16

Cc1ccc(-n2cc(C(=O)O)c(=O)c3cc(F)c(N4CC(C)NC(C)C4)cc32)cc1 (stereo not given) yielded pKa of 8.61

In plain terms, Cc1c(F)ccc(-n2cc(C(=O)O)c(=O)c3cc(F)c(N4CC(C)NC(C)C4)cc32)c1F (stereo not given) has a documented pKa of 8.47

The compound identified as `Cc1c(F)ccc(-n2cc(C(=O)O)c(=O)c3cc(F)c(N4CCNCC4)cc32)c1F` registered its pKa at 8.54

Record CC1CN(c2cc3c(cc2F)c(=O)c(C(=O)O)cn3-c2ccccc2)CC(C)N1 (stereo not given) , field pKa: 8.58

Entry CC1CN(c2cc3c(cc2F)c(=O)c(C(=O)O)cn3-c2ccc(F)cc2F)CC(C)N1 (stereo not given) , pKa reported as 8.26

Documented pKa of Cc1ccc(-n2cc(C(=O)O)c(=O)c3cc(F)c(N4CC(C)NC(C)C4)cc32)c(C)c1 (stereo not given) : 8.24

Record `Cc1cc(F)ccc1-n1cc(C(=O)O)c(=O)c2cc(F)c(N3CCNCC3)cc21` . Reported pKa: 8.37

Entry CC1CN(c2cc3c(cc2F)c(=O)c(C(=O)O)cn3-c2ccc(Cl)cc2Cl)CC(C)N1 (stereo not given) ; pKa = 8.37

get_value(item= `O=C(O)c1cn(-c2ccc(F)cc2F)c2cc(N3CCNCC3)c(F)cc2c1=O` , readout=pKa) returns 8.31

* * *

system: Streptococcus pyogenes; assay: Minimum inhibitory concentration against gram-positive Streptococcus pyogenes C203 (SP1-1); assay type: functional
property_name: MIC (mg/L)

Study these solved cases before continuing.
Consider `O=C(O)c1cn(C2CC2)c2cc(N3CCNCC3)c(F)cc2c1=O` . Its measured MIC is 0.4

Record `O=C(O)c1cn(-c2ccc(F)cc2)c2cc(N3CCNCC3)c(F)cc2c1=O` . Reported MIC: 0.4

Sample `C[C@@H]1CN(c2c(F)c(N)c3c(=O)c(C(=O)O)cn(C4CC4)c3c2F)C[C@H](C)N1` ; MIC observed: 0.1

# MIC (compound: `O=C(O)c1cn(-c2ccccc2)c2cc(N3CCNCC3)c(F)cc2c1=O` ) is 3.1

MIC recorded for this compound, CC1CN(c2cc3c(cc2F)c(=O)c(C(=O)O)cn3-c2ccccc2F)CC(C)N1 (stereo not given) , is 3.1

A: O=C(O)c1cn(-c2ccc(F)cc2F)c2cc(N3CCNCC3)c(F)cc2c1=O
B: Cc1c(F)ccc(-n2cc(C(=O)O)c(=O)c3cc(F)c(N4CCNCC4)cc32)c1F
Query block: Larger number for MIC: A , or B ? Answer with the label corresponding to your selection.
Result block: B
(B: 3.1 mg/L, A: 0.4 mg/L)

I: Cc1ccc(-n2cc(C(=O)O)c(=O)c3cc(F)c(N4CCNCC4)cc32)c(F)c1
II: O=C(O)c1cn(-c2ccccc2F)c2cc(N3CCNCC3)c(F)cc2c1=O
Query block: Of I and II , which one carries the higher reported MIC? Refer to your chosen item by its label in the answer.
Result block: I

P: CC1CN(c2cc3c(cc2F)c(=O)c(C(=O)O)cn3-c2ccc(F)cc2F)CC(C)N1 (stereo not given)
Q: CC1CN(c2cc3c(cc2F)c(=O)c(C(=O)O)cn3-c2ccccc2)CC(C)N1 (stereo not given)
Query block: Could you determine which record has the numerically smaller MIC? Candidates: P and Q # respond with the chosen item's label
Result block: P
(P: 0.8 mg/L, Q: 3.1 mg/L)
